Quick reference for switch fluorescence ratio among some sequences
Tested on: ATP;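 further: ATP exposure 15 min at 22 °C before imaging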
test.protocol: switch fluorescence ratio, 500 uM ATP over buffer (Cy3 cluster intensity, sum of 5 cycles each) (fold (ratio)); higher = stronger signal-on switching upon ATP binding; sequences stand for … in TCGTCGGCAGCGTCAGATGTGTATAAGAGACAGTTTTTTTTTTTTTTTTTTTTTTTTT…TC
run.conditions: aptamer strand: ATP DNA aptamer (quencher-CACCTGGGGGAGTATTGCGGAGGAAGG + anchor), 100 nM annealed; ATP concentration: 500 uM

# entry.sequence, switch fluorescence ratio
data = [
    ("TTTATATAAT", 0.984),
    ("CGGTCCGTTT", 1.02),
    ("CTTTCTATGT", 0.986),
    ("TCAGTAATTT", 1.03),
    ("GGGGGACTAA", 0.996),
    ("TGTGATAGTG", 0.999),
    ("GTGGGCAGCG", 0.967),
    ("ATCAAGTGAG", 0.998),
    ("ACTGAATCCT", 1.08),
    ("ACGCAATGAT", 5.18),
    ("CATGCTTTCC", 1.17),
    ("GCTCGAAATG", 1.07),
    ("CGCGCCTGTG", 1.17),
    ("ACTATAGTGT", 1.02),
    ("GGGTTGCTTG", 0.981),
    ("GGGAGTAGAC", 1.02),
    ("TGGTCCCTTG", 1.12),
]

# credit: the supplement of paper PMC10126150
